# Test system: CCRF-CEM
# assay.protocol: NCI tumour cell line growth inhibition, 48 h
The source made the active and inactive calls. Rule as the data show it: active = GI50 up to about 1.1 µM and inactive = higher.
outcome.measure: GI50

Given the entry `Cc1cccc(Cl)c1NC(=O)/C=C/c1ccccc1` , report its measured GI50. > 100 µM (inactive)

Given the entry `O=C(/C=C\c1ccccc1)Oc1ccc(/C=C2\CCC/C(=C\c3ccc(OC(=O)/C=C\c4ccccc4)cc3)C2=O)cc1` , report its measured GI50. > 100 µM (inactive)

Given the entry CC1=NNC(=O)C1C1CC(c2c[nH]c3ccccc23)=NN(C(N)=O)C1=O (stereo not given) , report its measured GI50. 31 µM (inactive)

Given the entry `O=c1c2ccccc2n2cnc3ccc(NCCNCCO)c1c32` , report its measured GI50. 1.22 µM (inactive)

Given the entry CC1=NN(C(=O)CSc2nnc(SCC(=O)N3N=C(C)CC3(O)c3ccccc3)s2)C(O)(c2ccccc2)C1 (stereo not given) , report its measured GI50. 18.7 µM (inactive)

Given the entry `Cn1c(-c2c(C3=CC(=O)N(c4ccccc4)C3=O)c3ccccc3n2C)cc2ccccc21` , report its measured GI50. 18.9 µM (inactive)

Given the entry COc1c(/C=C/C(C)(C)O)cc(C2CC(=O)c3c(O)cc(O)cc3O2)cc1CC=C(C)C (stereo not given) , report its measured GI50. 13.2 µM (inactive)

Given the entry `N#Cc1c(-c2ccccc2)c(/N=N/c2ccc(Cl)cc2)c(=O)n2c1[nH]c1ccccc12` , report its measured GI50. > 100 µM (inactive)

Given the entry NC(CSC1(c2ccc(Cl)cc2)c2ccccc2-c2ccccc21)C(=O)O (stereo not given) , report its measured GI50. 29.1 µM (inactive)

Given the entry `COc1ccc2c3c(c(C(=O)c4ccccc4)oc13)CCC2` , report its measured GI50. > 100 µM (inactive)
